# test-name: yeast display, Sf9 membrane polyspecificity reagent, FACS + sequencing; frameworks hold sequencing errors

| sequence-content | polyreactivity (PSR sort gate) |
| --- | --- |
| QVQLVESGGGLVQAGGSLRLSCAASGSTFLWNAMGWYRQAPGKERELVAAISYSGGSTYYADSVKGRFTISRDNAKNTVYLQMNSLKPEDTAVYYCAKEWFYDPYPPGYDYWGQGTQVTVSS | low polyreactivity |
| QVQLVESGGGLVQAGGSLRLSCAASGSIFSQYAMGWYRQAPGKERELVAAITYGGGSTYYADSVKGRFTISRDNAKNTVYFQMNSLKPEDTAVYYCAKEFKYWGYPYDYWGQGTQVTVSS | low polyreactivity |
| QVQLVESGGGLVQAGGSLRLSCAASRSTFPRYAMGWSRQAPGKERELVAAISSSGRTYYADSVKGRFTISRDNAKNTVYLQMNSLKPEDTAVYYCNAPVARGEASYYWGQGTEVTVSS | high polyreactivity |
| QVQLVESGGGLVQAGGSLRLSCAASGFIIRKYAMGWYRPAPGKEWELVAAISGRADSTYYADSVKGRFTISRDNAKNTVYLQMNSLKPDDTAVYYCAAYWHSKIGKGYDYWGQGTQVTVSS | high polyreactivity |
| QVQLVESGGGLVQAGGSLRLSCAASGSIFPFNAMGCYRQAPGKERELVAAISYSGGSTYYADSVKGRFTISRDNAKNTVYLQMTRLKPEDTAVYYCNRLLRRHLYIFYYWGQGTLVTVSS | high polyreactivity |
| QVQLVESGGGLDQAGGSLSLICAASASIFSYYAMGWYRQAAGKERELVATISSGGSTNYADSVKGRFTISRDNAKNTVYLQMNSLKPEDTAVYYCAATIGHNGFDYWGQGTQVTVSS | low polyreactivity |

====

# test-name: yeast display, Sf9 membrane polyspecificity reagent, FACS + sequencing; frameworks hold sequencing errors
recorded-endpoint: polyreactivity (PSR sort gate)

| sequence-content | endpoint-value |
| --- | --- |
| QVQLVESGGGLVQAGGSLRLSCAASGFTFLKNAMVWYRQAPGKERELVAAITGSGGSTYYADSVKGRFTISRDNAKNTVYLQMNSLKPEDTAVYYCNVRRGLRAYEYWGQGTQVTVSS | high polyreactivity |
| QVQLVESGGGLVQAGGSLRLSCAASGRIFYNNAMGWYRQAPGKERELVASITRNGGRTYYADSVKGRFTISRDNAKNTVYLKMNSLKREDTAVYYCAIDYSRGQIRAGAYEYWGQGTQVTVSS | high polyreactivity |
| QVQLVESGGGLVQAGGSLRLSCAASGRIFSGYVMGWYRQPPGKERELVAAISRSGGSTYYADSVKGRFTISRDNAKNTVYLQMNSLKPEDTAVYYCNADWYKRHYDYWGQGTQVTVSS | high polyreactivity |
| QVQLVESGGGLVQAGGSLRLSCAASGFIFSGYAMGWYRQAPGKEWELVAAISRRGGSTYYADSVKGRFTISRDNAKNTVYLQMNSLKPEDTAVYYCARTTRGSYGKFYYWGQGTQVTVSS | high polyreactivity |
| QVQLVESGGGLVHAGVSLRLSCAASGIIFAHYAKGWYRQAPGKERELVAAISSSGATTYYADSVKGRFTISRDNAKNTVYLQMNSLKPEDTAVYYCNTETYHVRRLFDYWGQGTQVTVSS | low polyreactivity |
| QVQLLESGGGLVQAGRSLRLSCAASGRIFRYYAMGWYRQAPGKERELVAAISYSTGGTSTYADSVKGRFTISRDNAKTTVYLQMNSLKPEDTAVYYCAVRRQYRRAYSFSQSRYDYWGQGTQVTVSS | high polyreactivity |
| QVQLVESGGGIVQAGGSLRLSCAASGRTFYGNAMGWYIQEPGKERELVAGISQNGGSTYYADSVKGRFTSSRDTAKNTVYLQMNRLKPEDSAVYYCAADSYYFTGYWAHPYDYWGEGTQVTVSS | high polyreactivity |
| QVQLVESGGGLVQAGGSLRLSCAASGRIFPVYTMGWYRQAPGKERELVAAISGNGASTYYADSVKGRFTISRDNAKNTVYLQMNSLKPEDTAVYYCAAYFYYWGSTFVRYEYWGQGTQVTVSS | high polyreactivity |
| QLQLEESGGGFVQAGGSLRISCAASGAIFLSYAMGWYRQAAAKEMEFVAGISYSGGTTYYADSVKGRFTISRDNAKNTVYLQMNSLKQEVTAVYYCAKRTAVWTSGGYRKRDYWGQATQVTVSS | high polyreactivity |
| QVQLVESGGGLVQAGGSHRLSCAASGRTFWKYVMGWYRQAPGTERELVAVISRPAGSTYYADSVKGRFTISRHNEKNTVYLQMNSLKPEDTAVYYCAKRPKNKPVLGDYDHWGQGTQVTVSS | low polyreactivity |
| QVQLVESGGGLVQAGGSLRLSCAASGSTFDTNAMGWSRPAPGKEREWVAAITWRGGRTSYADSVKGRFTISRDNAKNTVYLQMNSLKPEDTAVYYCAAGYKFGPPAAGTFSDFDYWGQGTQVTVTS | low polyreactivity |

====

# test-name: yeast display, Sf9 membrane polyspecificity reagent, FACS + sequencing; frameworks hold sequencing errors

| sequence-content | polyreactivity (PSR sort gate) |
| --- | --- |
| QVQLVESGGGLVQAGGSLRLSCAASGRTFAFYTMGWYRQAPGKEREFVAASSWSGGSTHYADSVKGRFTISRDNEKNTVYLQMNSLTQEYTAVYYCAAGPFYRFTDGRDKTLDYWGQGNQVTVSS | high polyreactivity |
| QVQLEESGGGLVQAGGSLRLSCAASGLIFQVYALGWYRQAPGKERELVASISWNGGSTYYADSVKGRFTISRDNAKNTVYLQMNSLKPEDTAVYYCNKYPVSLWYYSKDYTYDYWGQGTQVTVSS | low polyreactivity |
| QVQLVESGGGLVQAGGSLRLSCAASSIFRTYAMGWYRQAPGKERELVAAITWSGASTNYADSVKGRFTISRDNAKNTVYLQMNSLKPEDTAVYYCNADWRYYPSFKYYYWGQGTQVTVSS | high polyreactivity |
| QVQLVESGGGLVQAGGSLRLSCAASGRIFYFYAMVWYRQAPGKERELVAAISTSGGSTYYADSVKGRFTISRDNAKNTVYLQMNSLKPEDTAVYYCAARFRYYGSEYDYWGQGTQVTVSS | low polyreactivity |
| QVQLVESGGGLVQAGGSLRLSCAASGSTFAYYTMGWYRQAPGKERELVAAITWSGGRTFYADSVKGRFTISRDNAKNTVYLQMNSLKPEDTAVYYCNTDDSHRPPRTPDDYNYWGQGTQVTVSS | high polyreactivity |
| QVQLVESGGGLVQAGGSLRLSCAASGRIFARYTMGWYRQAPGKERDLVAAISRGGGTNYADSVKGRFTISRDNAKNTVYLQMNSLKPEDTAVSYCAADVSLVYPYSYRYYYWGQGTQVTVSS | low polyreactivity |
| QVQLVESGGGLVQAGGSLRLSCAASGSIFSVYAMGWYRQAPGKERELVAAISRGDSTYYADSVKGRFTISRDNAKNTVYLQMNSLKPEDTAVYYCAKAYLRYYDGPYDYWGQGTQVTVSS | low polyreactivity |
| QVQLVESGGGLVQAGGSLRLSCAASGFIFYDYAMGWYRQAPGKERELVAAISSGGSTNYADSVKGRFTISRDNAKNTVYLQMNSLIPEDTEVYYCAADDRSYATWKRDYDYWGQGTQVTVSS | low polyreactivity |
| QVQLVESGGGLVQAGGSLRLSCAASGIIFLWYAMGWYRQAPGKERELVAAISRTGSSTYYADSVKGRFTISRDNAKNTVYFQMNSLKPEDTAVYYCAAAYYSKRSWRFDYWGQGTQVTVSS | high polyreactivity |
| QVQLVESGGGLVQAGGSLRLSCAASGYIFGFYAMGWYRQAPGKERELVSRITYSGTSTYYADSVKGRFTISRDNAKNTVYLQMNSLKPEDTAVYYCATDFVRHAGWRRYDYWGQGTQVTVSS | low polyreactivity |
| QVQLVESGGGLVQAGGSLRLSCAASGRIFSRYVMGWYRQAPGKERELVAAITSSGGRTYYADSVKGRFTISRDNAKNTVYLQMNSLNPEDTAVYYCNNAPWWRTSSDYEYWGQGTQVTVSS | high polyreactivity |
| QVQLVESGGGLVQAGGSLRLSCAASGGNFSLNAMGWYRQAPGKERELVATISWSGTSTHYADSVKGRFTISRDNAKNTVYLQMNSLKPEDTAVYYCNTRLYGRDYSWYDYWGQGTQVTVSS | high polyreactivity |

====

# test-name: yeast display, Sf9 membrane polyspecificity reagent, FACS + sequencing; frameworks hold sequencing errors

| sequence-content | polyreactivity (PSR sort gate) |
| --- | --- |
| QVQLVESGGGLVQAGGSLRLSCAASGFTFALYAMGWYRQAPGKERELVASISWSGGSTYYADSVKGRFTISRDNAKNTVYLQMNSLKPEDTAVYYCAACGRYYGGAYTRYYYWGQGTQVTVSS | high polyreactivity |
| QVQLVESGGGLVQAGGSLRLSCAASGSTFAYYAMGWYSPAPGKERELVAAISSSGGRTYYADSVKGRFTISRDNAKNTVYLQMYSLKPEDTAVYYCAARSPYYSASVRYDYWGQGTQVTVSS | high polyreactivity |
| QVQLVESGGGLVQAGGSLRLSCAASGRIFAGYVMGWYRQAPGKERELVAAISWRGGRTYYADSVKGRFTISRDNAKNTVYLQMNSLKPEDTAVYYCNAPYAVGYPADDYWGQGTQVTVSS | high polyreactivity |
| QVQHVESGGGLVQAGGSLRLSCAASGRILIRNAMGWYRQAPGKERELVAAINRGGGSTYYADSVKGRFTISRDNAKNTVYLQMNSLKPEDTAVYYCAADRKAGYSRVDGDYWGQGTQVTVSS | low polyreactivity |
| QVQLVESGGGLVQAGGSLRLSCAASGSIFFRYATMGWYRHAPGKESELVAAISRSGGSTYYADSVKGRFTISRDNGKNTVYLQMNSLKPEDTAVYYCAKVSPSLRASGYDYWGQGTQLTVSS | high polyreactivity |
| QVQLVESGGGLVQAGGSLRLSCAASRRIFSFNAMGWYRQAPGKDRELVAGSTYGGNTYYADSVKGSFTISRDNAKNTVYLQMNSLKPEDTAVYYCAAVRGGRHDYWGQGTQVTVSS | low polyreactivity |
| QVQLVESGVCLVQAGGSLLLSCAASRRIFRNAMGWYRHAPGKERELVAAISSGGTTNYADSVKGRFTISRDNAKNTVYLLMNSLKPEDTAVYYCAAAPSSYRYRYVVFTFGYWGQGTQVTVSS | high polyreactivity |
| QVQLGESGGGLVQAGGSLRLSCAASGGIFDIYAMGWYRQAPGKERELVAAIRGSGGRTYYADSVKGRFTISRDNAKNSLYLQMNSLKPEDTAVYYCAARPSIVTGLRYGYWGQGTQVTVSS | high polyreactivity |
| QVQLVESGGGLVQAGGSLSLSSDASGSPLFSDAMGWYRQAPGKEREFVAAISRRGRSTYYADSVKGRFTISRDNAKNSVYFQMNSLIPEDTAVYYCAARDSSYNWYGYWGQGTQVTVSS | high polyreactivity |
| QVQLVESGGGLVQAGGSLRLSCAASGSTFIYNTMGSYRQAPGKERELVAAISGSGGRTYYADSVKGRFTISRDNAKNTVYLQMNSLKPEDTAVYYCAARYYTKLYWGQGTQVTVSS | high polyreactivity |
| QVQLVESGGGLVQAGGSLRLSCAASGFTFHSYAMGWYRQAPGKERELVATISRSGGSTYYADSVKGRFTISRDNAKNTVYLQMNSLKPEDTAVYYCNKLLYGWSKPVGYDYYWGQGTQVTVSS | high polyreactivity |
| QVQLVDSGGGLVQAGGSLRLSCAASGFIFDLYAMGWYRQAPGKERELVAAITTSGGTTYYADSVKGRFTISRDNAKNTVYLQMNSLIPEDTAVYFCAARRYSWYYYWGQGTQVTVSS | high polyreactivity |

Cited source for all entries: the nanobody polyreactivity screen of Harvey et al. (2022)
